SYSTEM TESTED: Cyclin-dependent kinase 5/CDK5 activator 1 (Homo sapiens, UniProt Q00535)
Sequence (Q00535 whole entry): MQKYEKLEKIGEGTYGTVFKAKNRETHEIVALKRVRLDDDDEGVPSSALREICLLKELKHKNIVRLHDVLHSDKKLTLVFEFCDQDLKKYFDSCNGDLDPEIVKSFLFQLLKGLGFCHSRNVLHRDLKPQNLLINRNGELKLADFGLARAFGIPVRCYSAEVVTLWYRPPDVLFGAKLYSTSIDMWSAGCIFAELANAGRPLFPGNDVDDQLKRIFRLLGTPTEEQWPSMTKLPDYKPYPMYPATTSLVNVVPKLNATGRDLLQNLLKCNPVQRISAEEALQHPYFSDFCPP
Sequence (Q15078 whole entry, further chain): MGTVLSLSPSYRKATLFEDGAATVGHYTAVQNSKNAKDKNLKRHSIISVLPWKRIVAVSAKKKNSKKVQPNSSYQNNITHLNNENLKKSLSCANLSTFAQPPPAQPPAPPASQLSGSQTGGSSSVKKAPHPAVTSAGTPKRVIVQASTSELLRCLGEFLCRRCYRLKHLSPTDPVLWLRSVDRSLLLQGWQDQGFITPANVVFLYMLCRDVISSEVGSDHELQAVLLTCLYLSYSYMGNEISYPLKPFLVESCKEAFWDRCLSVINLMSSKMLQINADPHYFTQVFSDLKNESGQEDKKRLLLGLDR
METHOD DESCRIPTION: Inhibition of CDK5/p25 by scintillation proximity assay
Type: protein-complex assay
I'd appreciate it if you could supply pIC50 values for the items below.
Hey, just a heads up that pIC50 is the negative log base 10 of the concentration in molar.

Lookup: Given the molecule COc1ccc(CC(=O)Nc2cn(C3CCCCC3)cn2)cc1 , what is its reported pIC50?
Found: 6.13

Lookup: Same thing, different molecule: COc1ccc(CC(=O)Nc2cn([C@H]3C[C@@H](NS(C)(=O)=O)C3)cn2)cc1
Found: 6.75

Lookup: Same thing, different molecule: COc1ccc(CC(=O)Nc2cn([C@H]3C[C@@H](NC(C)=O)C3)cn2)cc1
Found: 8.05

Lookup: Same thing, different molecule: COc1ccc(CC(=O)Nc2cn(C3CC3)cn2)cc1
Found: 6.09

Lookup: Same thing, different molecule: COc1ccc(CC(=O)Nc2cn(C3CCC3)cn2)cc1
Found: 6.84

Lookup: Same thing, different molecule: COc1ccc(CC(=O)Nc2cn([C@H]3C[C@@H](C(=O)OC)C3)cn2)cc1
Found: 6.84

Lookup: Same thing, different molecule: O=C(Cc1cccc2ccccc12)Nc1cn(C2CCC2)cn1
Found: 7.34

Lookup: Same thing, different molecule: O=C(Cc1ccccc1)Nc1ncc(C2CCC2)s1
Found: 7.19

Lookup: Same thing, different molecule: O=C(Cc1cccc2ccccc12)Nc1cn([C@H]2C[C@@H](NC(=O)c3ccccn3)C2)cn1
Found: 7.85

Lookup: Same thing, different molecule: COc1ccc(CC(=O)Nc2cn(C3CCCC3)cn2)cc1
Found: 6.81

Lookup: Same thing, different molecule: O=C(Cc1cccc2ccccc12)Nc1cn([C@H]2C[C@@H](NC(=O)c3cccnc3)C2)cn1
Found: 7.34

Lookup: Same thing, different molecule: CC(=O)N[C@H]1C[C@@H](n2cnc(NC(=O)Cc3cccc4ccccc34)c2)C1
Found: 8.10

Lookup: Same thing, different molecule: CC(=O)N(C)[C@H]1C[C@@H](n2cnc(NC(=O)Cc3cccc4ccccc34)c2)C1
Found: 6.97

Lookup: Same thing, different molecule: COc1ccc(CC(=O)Nc2cn(Cc3ccccc3)cn2)cc1
Found: 5.06

Lookup: Same thing, different molecule: NC(=O)[C@H]1C[C@@H](n2cnc(NC(=O)Cc3cccc4ccccc34)c2)C1
Found: 6.41

Lookup: Same thing, different molecule: Cc1cccc(C(=O)N[C@H]2C[C@@H](n3cnc(NC(=O)Cc4cccc5ccccc45)c3)C2)n1
Found: 8.22

Lookup: Same thing, different molecule: O=C(Cc1cccc2ccccc12)Nc1cn([C@H]2C[C@@H](NC(=O)c3ccncc3)C2)cn1
Found: 7.55

Lookup: Same thing, different molecule: COc1ccc(CC(=O)Nc2cn([C@H]3C[C@H](C(=O)OC)C3)cn2)cc1
Found: 5.36

Lookup: Same thing, different molecule: O=C(Cc1cccc2ccccc12)Nc1cn([C@H]2C[C@@H](NC(=O)c3cccc(Cl)n3)C2)cn1
Found: 8.22

Lookup: Same thing, different molecule: O=C(Cc1ccccc1)Nc1cn(C2CCC2)cn1
Found: 6.30

Lookup: Same thing, different molecule: COc1ccc(CC(=O)Nc2cn([C@H]3C[C@H](O)C3)cn2)cc1
Found: 5.96

Lookup: Same thing, different molecule: COc1ccc(CC(=O)Nc2cn(C(C)C)cn2)cc1
Found: 6.37

Lookup: Same thing, different molecule: COc1ccc(CC(=O)Nc2cn([C@H]3C[C@@H](O)C3)cn2)cc1
Found: 7.02
